These measurements were taken from PubChem BioAssay (NCI).

Each entry below lists one item and its recorded growth value.
Tested on: SNB-19 CNS
Assay Text: NCI-60 one-dose screen, 48 h (100 = growth as untreated, 0 = no growth, -100 = all killed)
Conditions: 10 µM unless noted
Protocol: Growth inhibition of the SNB-19 human tumor cell line is measured as a screen for anti-cancer activity. Cells are grown in 96 well plates and exposed to the test compound for 48 hours. Compounds are tested at a single concentration, which is 10^-5 M for most compounds. The reported endpoint is percent growth (GI% or GIPRCNT), where numbers from 0 - 100% represent growth inhibition, and numbers from -100% - 0 represent cell death. For example, a value of 40 represents 60% growth inhibition. […]
This is part of a sample that, as a whole, favours compounds with a hit. Of some 83,000 tested, about 20% had one in any assay. Activity calls are given as the source filed them. The calls were made as follows: active = growth percent below 10; inactive = the rest.

Example results:
INSERT INTO results (compound, readout_label, result) VALUES
  ('COc1ccc(/C=C2\c3cc(OC)c(OC)c(OC)c3CC[C@@H]2O)cc1F', 'growth', '42.4% (inactive)'),
  ('c1ccc(-c2ccc3c(c2)C2(CCNCC2)CN3)cc1', 'growth', '101% (inactive)'),
  ('O=C(O)CCCCCCCCCCN1C(=O)/C(=C2/C(=O)N(CC(=O)O)c3ccc(Br)cc32)SC1=S', 'growth', '99.9% (inactive)'),
  ('NCCCNc1nc2ccccc2c2c(=O)c3cc(Cl)ccc3sc12', 'growth', '22.8% (inactive)');

Now turn to the next compound.
# return recorded growth for entry CN(C)CCCNC(=O)c1cncnc1Nc1ccc2c(ccn2Cc2cccc(F)c2)c1
92.5% (inactive)

----------
Test system: SW-620 colon
Assay Text: NCI-60 one-dose screen, 48 h
Conditions: 10 µM unless noted
Compounds without any hit were thinned out: in the full panel of roughly 83,000, 20% have a hit. Calls of active or inactive are those of the source. How the source made its calls: active means growth percent below 10; inactive means the rest.
Hi there, use one of these labels in your reply, thanks! active, inactive

Please review the following examples before continuing.
INSERT INTO results (smiles_data, cat) VALUES
  ('CNC(=O)c1cc(Oc2ccc3c(c2)sc2nc(-c4ccc(NC(=O)[C@@H](NC(=O)OC)C(C)C)cc4)cn23)ccn1', 'inactive'),
  ('CN(C)CCC(CCN(C)C)(C(=O)O)c1ccccc1', 'inactive');

Which outcome did this test record for the molecule CC(=O)c1c(Nc2cccc(F)c2)[nH]c2c(Cl)cc(Cl)c(Cl)c2c1=O ?
active

Which outcome did this test record for the molecule CC1=Nc2cnc(Nc3ccc(N4CCCCC4)cc3)nc2Nc2ccccc21 ?
inactive

Which outcome did this test record for the molecule CN(C)/C(N)=N/N=C(\c1ccccc1)c1ccccn1 ?
inactive

----------
Each entry below lists one item and its recorded growth value.
Tested on: HT29 colon
Assay Text: NCI-60 one-dose screen, 48 h (100 = growth as untreated, 0 = no growth, -100 = all killed)
Conditions: 10 µM unless noted
The panel holds about 83,000 compounds, 20% with a hit somewhere; the sample as a whole holds those more often. Calls of active or inactive are those of the source. Rule for the calls: active = growth percent below 10; inactive = the rest.

INSERT INTO results (molecule, result) VALUES
  ('CC1=C2[C@@H](CC1)[C@]1(C)O[C@@](C3CCNCC3)(C[C@H]1OC(=O)CO)[C@H]2OC(=O)/C=C/c1ccccc1', '43.2% (inactive)'),
  ('COc1cc(N2C(=O)[C@H](Cl)C2c2ccc(SC)cc2)cc(OC)c1OC (some centres undefined)', '1.22% (active)'),
  ('O=C(/C=C/c1ccccc1)c1cccc2ccccc12', '3.24% (active)');

# return recorded growth for entry CCOC(=O)c1cnn(CC(C)O)c1NC(=O)NCc1cccc(F)c1 (centres undefined)
84.3% (inactive)

----------
Test system: OVCAR-5 ovarian
Assay Text: NCI-60 one-dose screen, 48 h (100 = growth as untreated, 0 = no growth, -100 = all killed)
Conditions: 10 µM unless noted
This is part of a sample that, as a whole, favours compounds with a hit. Of some 83,000 tested, about 20% had one in any assay.
Readout Label: growth (%)
Report only the number, with the unit % understood.

Example results:
INSERT INTO measurements (compound, readout_label, unit_abbrev, result_number) VALUES
  ('N[C@@H]1CCC[C@H]1NCCCCN1C(=O)c2cccc3cc([N+](=O)[O-])cc(c23)C1=O', 'growth', '%', 72.5),
  ('Cn1cc(-c2csc(-c3cn(CCCN4CCOCC4)c4ccc(F)cc34)n2)c2cccnc21', 'growth', '%', 73),
  ('COc1ccc(N=C2NN=C(c3c[nH]c4ccccc34)CS2)cc1OC', 'growth', '%', 74.6),
  ('Clc1ccc(Nc2ncc(Cc3cccc(Cl)c3Cl)s2)cc1', 'growth', '%', 85.8),
  ('N#Cc1ccc(O)c(C2=NCC(c3ccc(-c4ccccc4)cc3)O2)c1 (stereo not given)', 'growth', '%', 38.7);

# return recorded growth for entry NS(=O)(=O)c1ccc(C(=O)N=Nc2c(O)[nH]c3ccc(Cl)cc23)cc1
110

# return recorded growth for entry COc1ccc(C2CC(c3ccccc3)=NN2C(=O)c2cc(OC)c(OC)c(OC)c2)cc1O (stereo not given)
60.1

# return recorded growth for entry CCOC(=O)c1c(C)nc2c(c1N)C(=O)C(=O)N2Cc1ccc(OC)cc1
97.5

----------
System: UACC-257 melanoma
Assay Text: NCI-60 one-dose screen, 48 h
Conditions: 10 µM unless noted
This is part of a sample that, as a whole, favours compounds with a hit. Of some 83,000 tested, about 20% had one in any assay. Activity calls are given as the source filed them. Rule for the calls: active = growth percent below 10; inactive = the rest.
Hi there, use one of these labels in your reply, thanks! active, inactive

INSERT INTO results (compound, cat) VALUES
  ('c1ccc2cc(Cn3cc(CSc4nc5ccccc5s4)nn3)ccc2c1', 'inactive'),
  ('Cc1ccc(OCCOCCOCCOCCOCCOc2ccc(C)n(O)c2=S)c(=S)n1O', 'active'),
  ('O=C(O)CCCCCCCCCCN1C(=O)/C(=C2/C(=O)N(CC(=O)O)c3ccc(Br)cc32)SC1=S', 'inactive'),
  ('CNC(=O)Nc1ccc(-c2ccc3ncnc(Nc4cccc(Cl)c4)c3c2)cc1', 'inactive'),
  ('C/C(=N\Nc1ccccc1)c1ccc(NC2=CC(=O)c3ccccc3C2=O)cc1', 'inactive');

Which outcome did this test record for the compound Cc1cc(N2CCN(CC(=O)Nc3ccc4c(ccn4Cc4ccccc4)c3)CC2)nc(N2CCOCC2)n1 ?
inactive

Which outcome did this test record for the compound CCOC(=O)/C(=C(/C)NCC(C)C)c1cc(O)c(O)c2c(C)cc(=O)[nH]c12 ?
inactive

Which outcome did this test record for the compound C=C(C)[C@@H]1CC[C@]2(C(=O)N3CCN(C)CC3)CC[C@]3(C)[C@H](CC[C@@H]4[C@@](C)(CCC(=O)O)[C@H](C(=C)C)CC[C@]43C)[C@@H]12 ?
inactive

Which outcome did this test record for the compound COc1ccc(C(=O)Nc2ncc(Cc3ccc(Cl)cc3)s2)cc1 ?
inactive

----------
Test system: MDA-MB-435 melanoma
Assay Text: NCI-60 one-dose screen, 48 h
Conditions: 10 µM unless noted
This is part of a sample that, as a whole, favours compounds with a hit. Of some 83,000 tested, about 20% had one in any assay. The source made the active and inactive calls. Rule for the calls: active = growth percent below 10; inactive = the rest.
Hi there, use one of these labels in your reply, thanks! active, inactive

INSERT INTO measurements (molecule, cat) VALUES
  ('COCCOC(C)C(/C=N/NC(N)=S)=N/NC(N)=S (stereo not given)', 'inactive');

Which outcome did this test record for the molecule O=C(NN1C(=O)CSC1c1cccc([N+](=O)[O-])c1)c1ccc(NC(=O)c2ccccn2)cc1 (stereo not given) ?
inactive

Which outcome did this test record for the molecule CCOC(=O)c1nnn(-c2no[n+]([O-])c2-c2ccc(OC)cc2)c1COc1cccc2cccnc12 ?
active

Which outcome did this test record for the molecule Fc1cc2[nH]ncc2c2c3c(c(-c4cn[nH]c4C(F)(F)F)nc12)CCCC3 ?
inactive

Which outcome did this test record for the molecule C#COc1cccc(Nc2ncnc3cc(NC(=O)[C@H](C)Cl)ccc23)c1 ?
active

Which outcome did this test record for the molecule O=C(Nc1cc(Cl)ccc1O)c1ccccc1Nc1ccnc(C(F)(F)F)c1 ?
inactive

Which outcome did this test record for the molecule CN(C)CCC(=O)C1CC1 ?
inactive

Which outcome did this test record for the molecule CNCC[C@H](Oc1cccc2ccccc12)c1cccs1 ?
inactive

Which outcome did this test record for the molecule COc1ccc2c(c1)c(-c1nc(-c3ccc4ccccc4c3)cs1)cn2C ?
inactive

Which outcome did this test record for the molecule CC(C)c1ccc2c(c1)CC[C@H]1[C@](C)(C(=O)OCC#CCN3CCCC3)CCC[C@]21C ?
inactive

----------
Test system: DU-145 prostate
Assay Text: NCI-60 one-dose screen, 48 h (100 = growth as untreated, 0 = no growth, -100 = all killed)
Conditions: 10 µM unless noted
Compounds without any hit were thinned out: in the full panel of roughly 83,000, 20% have a hit.
Each entry below lists one item and its recorded growth value.
Report only the number, with the unit % understood.

Example results:
INSERT INTO results (compound, result_number) VALUES
  ('CCOC(=O)C/C(=N\Nc1cc(=O)[nH]c2ccc(C)cc12)C(=O)OCC', 108),
  ('NS(=O)(=O)c1ccc(C(=O)N=Nc2c(O)[nH]c3ccc(Cl)cc23)cc1', 102),
  ('CS(=O)/C(C#N)=C\C=C\c1cccc(Cl)c1 (stereo unspecified)', 23.1),
  ('CCCCCc1ccc(S(=O)(=O)Nc2ccc3nc(N)oc3c2)cc1', 74.2);

# return recorded growth for entry c1cc(OCCN2CCCC2)ccc1CNc1ccc2nc(CCC3CCCCC3)[nH]c2c1
65.2

# return recorded growth for entry Clc1ccc(Nc2ncc(Cc3cccc(Cl)c3Cl)s2)cc1
102

# return recorded growth for entry CCOC(=O)c1c(C)nc2ccccc2c1/C=C/c1ccc(F)cc1
89.6

# return recorded growth for entry Nc1cc(C(=O)O)cc(-n2c(O)c(C=C3N=c4ccccc4=N3)sc2=S)c1
111

# return recorded growth for entry O=S(=O)(N=C1C(Cl)=C(Cl)C(=NS(=O)(=O)c2ccccc2)C(Cl)=C1Cl)c1ccccc1
20.5
